Data origin: patent US9145375B2

Target: CYP3A4 (Homo sapiens, UniProt P08684)
Sequence (P08684 2-503): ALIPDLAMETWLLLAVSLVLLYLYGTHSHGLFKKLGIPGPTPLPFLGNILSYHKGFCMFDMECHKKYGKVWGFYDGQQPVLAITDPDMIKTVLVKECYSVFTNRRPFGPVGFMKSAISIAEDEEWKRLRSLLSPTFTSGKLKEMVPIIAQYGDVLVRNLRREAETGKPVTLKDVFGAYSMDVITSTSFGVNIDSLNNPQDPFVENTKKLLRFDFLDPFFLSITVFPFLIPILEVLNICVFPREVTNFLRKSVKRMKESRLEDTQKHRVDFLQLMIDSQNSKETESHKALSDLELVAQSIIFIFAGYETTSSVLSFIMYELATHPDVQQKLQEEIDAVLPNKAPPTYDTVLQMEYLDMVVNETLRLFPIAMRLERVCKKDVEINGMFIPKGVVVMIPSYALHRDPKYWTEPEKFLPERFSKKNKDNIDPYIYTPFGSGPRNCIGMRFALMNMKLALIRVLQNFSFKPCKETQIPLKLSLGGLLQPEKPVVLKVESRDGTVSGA
Test: CYP450 inhibition, specific substrate approach in human liver microsomes: CYP3A4
Format: in vitro ADME
Design: using a specific substrate approach in human liver microsomes; from tissue; host or cells: human liver microsomes
Settings: substrate not stated, read-out: CYP3A4 IC50
endpoint: IC50

CN(C)Cc1nc2c(O)c(Cl)cc(Cl)c2c(=O)n1CC1CC1
> 30 µM

====

Assay: PK Studies in the Rat
Type: in vivo
Conditions: plasma, oral 30 mg/Kg
Method: Assay 5. Pharmacokinetic Profile The pharmacokinetic profile of test compounds is determined by the following assay: • Intravenous infusion of test compound; 2 mg/Kg in a suitable vehicle is […]; […] up to 24 hours. • Plasma concentrations of test compound are determined by suitable analytical method. [formula] […]
endpoint: Tmax (min)

CCn1c(CN(C)C)nc2c(O)c(Cl)cc(Cl)c2c1=O.Cl [Compound F4268]
20
